Test system: RARb homodimer (NR concentration 270 nM)
procedure text: PBM binding z-score (relative to random genomic background probes); higher = stronger binding; sequences stand for … in GC…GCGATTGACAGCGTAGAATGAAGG
recorded metric: PBM binding z-score

Please report PBM binding z-score for every entry that follows.
1. ATATGTAGGTTACATGCGGGTCATTCAGGCTATG
2. CCGAGTAGGTTACGAGGGGGCAATCAGTGCGAAT
3. ACTAGTTGGTCAGCTGGGGTCACACACAATTCGG
4. AGTCAAAGGTCAGGACGAGGTAACGTAAAGCACG
5. CCAGACAGGTGAAAGGTCACTCAGTCTGGTACGC

(A)
[2.51, 2.19, 4.07, 4.82, 4.99]

Please report PBM binding z-score for every entry that follows.
1. CCTGCTAGGTCATGGTCAGGTAATCTACAGTATG
2. ATCGAAAGGTCGTGAGGTGAGTTTACAGAAAGGC
3. ATATGTAGGTAAGGGTCATTCAGAAAGTAGGGAA
4. TCGGGTAGGTTACGGGGGCATTCAGGGATGAAGA
5. CATACAGGGACAGCTAGGCCAGAGTAGGGACGGC
6. ATATGTAGTTTAGGGTCATTCAGAAAGTAGGGAA
7. ACTAGCAGGCCAAAGGTCACTCAAGATTAGTCCG

(A)
[3.22, 3.38, 3.55, 3.18, 0.286, 3.24, 4.87]

====

Test system: RXRa DBDmut IVT, anti-RXR (DBD mutation: RXRa K156A/R161A, NR concentration 90 nM)
procedure text: PBM binding z-score (relative to random genomic background probes); higher = stronger binding; sequences stand for … in GC…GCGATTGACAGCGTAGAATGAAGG
Would you kindly list PBM binding z-score for each of these sequences?

- TCTGCTGGGTCAACGATGGTCAGCTAATCTGCTA: 0.782
- GTACCAAGGTGAATAGGTCGTTGATGAGTAGGCG: 0.0133

Please report PBM binding z-score for every entry that follows.
1. ATCGAAAGGTCGACGAGGAGAGTATACACCGTTT
2. ATATGTAGGTGAGGGTCATTCAGAAAGTAGGGAA
3. CGCACTAGGTCACCAGGACAGTGAAGAGGTTGGA
4. CGTCCAAGGTCAACGCTAGGTCAGTGAAAGCATT

(A)
1: 1.18; 2: 1.67; 3: 1.09; 4: 3.69

Please report PBM binding z-score for every entry that follows.
1. CCTTGCGGGTCACTGACAGGTTATAGCATTTGGA
2. CCGAGTAGGTTACGAGGGGGCATTCAGTGCGAAT
3. CCTTACGGGCCACGAGGTTATAGCACGACGAGCG
4. CCTACAGGGCCAAAGGTCATTGATTCCAATGCTC
5. AATACAGGGTCATTAGGCCAGAGTAGGTACGAAT
6. CGTCCAAGGTCATGGGAGGTCAGTGAAGACAGAT
7. AGTCAAAGTTCACTAGGCAACGTAAGATTCAGCT
8. CGAACTAGATCACCAGGACAGTGAAGAGGTTGGA

(A)
1.77
1.15
-0.516
1.95
3.84
3.73
4.16
0.251

Please report PBM binding z-score for every entry that follows.
1. TCGAGTAGGTTACCGGGGCATTCAGGGATGAAGA
2. TCAAGTAGGTTACGGGGGCATTCAGGGATGAAGA
3. CCGTACGGGTCAAGGTTATAGCACGGGTGGTACG

(A)
[-0.0634, 2.81, 0.337]

Please report PBM binding z-score for every entry that follows.
1. ATATGTAGGTTAGCGTCATTCAGAAAGTAGGGAA
2. CCTGCTAGGACAATGGTCAGCTAAAGCAGCTCGC

(A)
1. -0.0875
2. 0.179

====

System: VDR:RXRa (NR concentration 270 nM, RXRa partner concentration 90 nM)
procedure text: PBM binding z-score (relative to random genomic background probes); higher = stronger binding; sequences stand for … in GC…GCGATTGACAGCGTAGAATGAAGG
Would you kindly list PBM binding z-score for each of these sequences?

Below, each entry is followed by its recorded PBM binding z-score result.
- CGTCAAAGTTCACCTAAGGTAACGTAAAGCACGC: 4.82
- CCTAGTTGGTCAAGGTCCCACACGCTATAGGTAC: 0.398
- CCGAGTAGGTTACGAGGTGGCATTCAGTGCGAAT: 0.516
- CCGAGTAGGTTACGAGGGGGCATCCAGTGCGAAT: 4.75
- CTATGTACGTTAAGGGGGTCATTCAGTTTGAAAG: 6.72

Please report PBM binding z-score for every entry that follows.
1. CCTACTGGGCCAACAAGGTCATTGATGCCGATAA
2. TCGAGTAGGTTACTGGGGCATTCAGGGATGAAGA
3. CCGAGTAGGTTCCGAGGGGGCATTCAGTGCGAAT
4. CGTCCAAGGTCAATGCTAGGTCACTGAAAGCATT

(A)
[5.56, 0.313, 4.09, 5.55]

Please report PBM binding z-score for every entry that follows.
1. CCGAGTAGGTTACCAGGGGGCATTCAGTGCGAAT
2. CAACCTAGGTCACGAAAGGTCAAAGTCGAATGAC
3. TAGCCTAGGTCATTTGGCCAGTATAGTACGCATC
4. CCCCGGAGGACAGAAGGTCAGAGCTGTCCGCTTT
5. TCGAGTAGGTTACGGGGGCATTAAGGGATGAAGA

(A)
1. 4.94
2. 7.15
3. 2.52
4. 0.723
5. 3.4

Please report PBM binding z-score for every entry that follows.
1. TCGAGTAGGTTACGGGGGCATTCGGGGATGAAGA
2. CGAACTAGCTCACCAGGACAGTGAAGAGGTTGGA
3. CGTCCAAGGTAAATGCTAGGTCAGTGAAAGCATT

(A)
[4.16, -0.616, 0.355]

====

System: PPARg:RXRa DBDmut IVT, anti-RXR (DBD mutation: RXRa K156A/R161A, NR concentration 270 nM, RXRa partner concentration 90 nM)
procedure text: PBM binding z-score (relative to random genomic background probes); higher = stronger binding; sequences stand for … in GC…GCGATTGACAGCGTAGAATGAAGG
Param threshold (3) applies to PBM binding z-score; output met when value >= threshold, not met when value < threshold.

- ATATGTAGGTTAGGGTCATTGAGAAAGTAGGGAA: met
- CCTACTGGGCCATGAAAGGTCATTGATTCAGTGA: met
- TAGCCTAGGTCATTCAGGGGCCAGAATAGAAAGC: not met
- CTATGTAGGTTAAGGTGGTCATTCAGTTTGAAAG: met
- TTACCGAGGTGAAAGGTCGTTGATGCACGCCTTG: met
- AGTCAAAGTTCATCTAGGTAACGAAAGATATGCT: not met

(Q) Threshold query (PBM binding z-score >= 3) on ATATGCAGGTTAGGGTCATTCAGAAAGTAGGGAA
(A) not met

(Q) Threshold query (PBM binding z-score >= 3) on GATACACGGTCAAGGCCAGAGTACGCGTATTGAT
(A) not met

(Q) Threshold query (PBM binding z-score >= 3) on CTATGTAGGCTAAGGGGGTCATTCAGTTTGAAAG
(A) met

(Q) Threshold query (PBM binding z-score >= 3) on TCTAGGAGGACACGAAGGTCAGAGCTTTCCAGAG
(A) not met

(Q) Threshold query (PBM binding z-score >= 3) on CCTTACGGGTCAGGGTTATAGCACGGGTGGTACG
(A) not met

(Q) Threshold query (PBM binding z-score >= 3) on CCGAGTAGGTTACGAGGGGGCATGCAGTGCGAAT
(A) met

====

Would you kindly list PBM binding z-score for each of these sequences?
Test system: THRa homodimer (NR concentration 90 nM)
procedure text: PBM binding z-score (relative to random genomic background probes); higher = stronger binding; sequences stand for … in GC…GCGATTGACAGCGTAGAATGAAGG
One number for each entry.

- ATCTCTAGGTCAAAGTTCAGTGAATCCCGAGGAT: 1.76

Please report PBM binding z-score for every entry that follows.
1. ATACCAAGGTCATCGTGAGGTCGTTGATACTAAC
2. CAAAGTAGGTCAAGAGGTCAAAGTCCGCTTCCCG
3. TTACCAAGGTTAAAGGTCGTTGATGCACGCCTTG

(A)
[3.91, 1.84, 0.88]

Please report PBM binding z-score for every entry that follows.
1. TATACAGGGTCAAAGGGCAGAGTACGAATGTCGA
2. TCGAGTAGGTTACGGGGGCCTTCAGGGATGAAGA
3. CTATGTAGGTTAAGGGGGTTATTCAGTTTGAAAG
4. GATACAGGGTCAATGCCAGAGTACGCGTATTGAT

(A)
1.48
0.405
1.4
0.742

Please report PBM binding z-score for every entry that follows.
1. CGAACTAGGTCAACGACAGTGAATCTCCGCACGC
2. TAGCCTAGGTCATGGGCCAGTTTACCACGCGAAC
3. CCTTACAGGTCACGAGGTTATAGCACGACGAGCG

(A)
1.08
1.42
1.85

The reported THRa homodimer (NR concentration 90 nM) PBM binding z-score of CCGAGTAGGTTAGGAGGGGGCATTCAGTGCGAAT is 1.44
